molecular target: CfEcR-DEF mutant M125L (Choristoneura fumiferana, UniProt O77255, M408L); experiment: cell-based
Sequence (P28702 299-449): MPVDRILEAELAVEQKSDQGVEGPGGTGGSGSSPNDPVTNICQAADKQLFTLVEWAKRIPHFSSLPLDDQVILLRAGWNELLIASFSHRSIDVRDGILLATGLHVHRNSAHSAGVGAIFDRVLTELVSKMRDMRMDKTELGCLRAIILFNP
Sequence (O77255 entry or part of it M408L): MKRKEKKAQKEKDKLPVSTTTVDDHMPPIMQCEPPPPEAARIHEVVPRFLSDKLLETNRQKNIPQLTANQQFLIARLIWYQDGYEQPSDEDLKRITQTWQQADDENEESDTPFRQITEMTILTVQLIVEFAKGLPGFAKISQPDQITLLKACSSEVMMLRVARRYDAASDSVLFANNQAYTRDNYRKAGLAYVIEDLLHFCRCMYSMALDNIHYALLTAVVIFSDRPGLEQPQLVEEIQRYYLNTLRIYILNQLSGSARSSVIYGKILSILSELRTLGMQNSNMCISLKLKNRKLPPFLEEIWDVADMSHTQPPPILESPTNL
pEC50: −log10 of the molar value.
quantity: pEC50

Check out these entries, answers already filled in.
> print(dat)
                                  structure                            measuredtarget     val
1  CCc1c(OC)cccc1C(=O)NN(C(=O)c1cc(C)cc(C)c1)C(C)(C)C  CfEcR-DEF mutant M125L (Choristoneura fumiferana, UniProt O77255, M408L)   ~5.00
2  CCc1cccc(C(=O)NN(C(=O)c2cc(C)cc(C)c2)C(C)(C)C)c1C  CfEcR-DEF mutant M125L (Choristoneura fumiferana, UniProt O77255, M408L)  < 4.48

Query :: Provide one value: measured pEC50 of Cc1cc(C)cc(C(=O)N(NC(=O)c2cccc(C(C)C)c2C)C(C)(C)C)c1
Result :: < 4.48

---

molecular target: CfEcR-DEF mutant L234I (Choristoneura fumiferana, UniProt O77255, L517I); assay: cell-based; settings: mutant L234I; read-out: EC50
pEC50: −log10 of the molar value.
quantity: pEC50

compound	val
CC(C)CC[C@@H](O)[C@](C)(O)[C@H]1CC[C@@]2(O)C3=CC(=O)[C@@H]4C[C@@H](O)[C@@H](O)C[C@]4(C)[C@H]3CC[C@]12C	~5.15

Then this compound:
Query :: Given the compound CC(C)(O)CC[C@@H](O)[C@](C)(O)[C@H]1CC[C@@]2(O)C3=CC(=O)[C@@H]4C[C@@H](O)[C@@H](O)C[C@]4(C)[C@H]3CC[C@]12C [20E, 20-hydroxyecdysone] , write its reported pEC50.
Result :: < 4.48

---

compounds and their reported pEC50
target: CfEcR-DEF mutant F48N (Choristoneura fumiferana, UniProt O77255, F331N); assay: GAL4-driven luciferase reporter assay in NIH3T3 cells; assay type: cell-based; conditions: mutant F48N; read-out: EC50
Sequence (O77255 entry or part of it F331N): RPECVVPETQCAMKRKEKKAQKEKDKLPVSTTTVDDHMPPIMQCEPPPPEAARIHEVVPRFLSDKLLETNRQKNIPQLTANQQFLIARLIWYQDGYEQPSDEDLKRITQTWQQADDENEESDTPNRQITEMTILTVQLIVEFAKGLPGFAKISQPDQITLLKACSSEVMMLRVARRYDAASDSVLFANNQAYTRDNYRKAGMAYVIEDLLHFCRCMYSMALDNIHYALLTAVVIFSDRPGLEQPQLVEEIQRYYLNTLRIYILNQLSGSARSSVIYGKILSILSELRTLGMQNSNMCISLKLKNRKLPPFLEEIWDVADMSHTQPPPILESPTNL
Sequence (P28702 299-449, further chain): as the sequence (P28702 299-449) above
pEC50: −log10 of the molar value.

compound	measuredTarget	quantity	val
CC(C)(O)CC[C@@H](O)[C@](C)(O)[C@H]1CC[C@@]2(O)C3=CC(=O)[C@@H]4C[C@@H](O)[C@@H](O)C[C@]4(C)[C@H]3CC[C@]12C [20E, 20-hydroxyecdysone]	CfEcR-DEF mutant F48N (Choristoneura fumiferana, UniProt O77255, F331N)	pEC50	< 4.48

Now examine the next entry.
Query :: Retrieve pEC50 measured for CC(C)CC[C@@H](O)[C@](C)(O)[C@H]1CC[C@@]2(O)C3=CC(=O)[C@@H]4C[C@@H](O)[C@@H](O)C[C@]4(C)[C@H]3CC[C@]12C [PonA, ponasterone A] and print it.
Result :: ~4.70

---

Target: CfEcR-DEF mutant N119F/V96T (Choristoneura fumiferana, UniProt O77255, N402F/V379T)
Sequence (O77255 entry or part of it V379T/N402F): as the sequence (O77255 entry or part of it M408L) above, with V161T, N184F, L190M counted along it
Sequence (P28702 299-449, further chain): as the sequence (P28702 299-449) above
Experiment: cell-based
Details: mutant N119F/V96T; read-out: EC50
Method: This construct was prepared in the same way as in switch 1.1 above except wild-type CfEcR-DEF was replaced with mutant CfEcR-DEF comprising a ligand binding domain comprising a substitution mutation selected from Table 1 below. […] Reporter Assays: Cells were harvested 40 hours after adding ligands. […] Luciferase activity was measured using Dual-Luciferase reporter assay system from Promega Corporation following the manufacturer's instructions. […]
quantity: EC50

compound	EC50
CC(C)CC[C@@H](O)[C@](C)(O)[C@H]1CC[C@@]2(O)C3=CC(=O)[C@@H]4C[C@@H](O)[C@@H](O)C[C@]4(C)[C@H]3CC[C@]12C	~0.3 µM

Next compound, EC50 to be filled in.
Query :: Tell me its EC50 given CC(C)(O)CC[C@@H](O)[C@](C)(O)[C@H]1CC[C@@]2(O)C3=CC(=O)[C@@H]4C[C@@H](O)[C@@H](O)C[C@]4(C)[C@H]3CC[C@]12C [20E, 20-hydroxyecdysone] as the entry.
Result :: ~8 µM

---

target: CfEcR-DEF mutant F109M (Choristoneura fumiferana, UniProt O77255, F392M); assay: cell-based
Sequence (O77255 entry or part of it F392M): as the sequence (O77255 entry or part of it F331N) above, with N125F, F186M counted along it
Sequence (P28702 299-449, further chain): as the sequence (P28702 299-449) above
Entries and their EC50
Write the value in nM as a bare number.

> print(dat)
                                   compound  quantity  unitspec  val
1  CCc1cccc(C(=O)NN(C(=O)c2cc(C)cc(C)c2)C(C)(C)C)c1C [RG-101691]      EC50        nM  650
2  CCc1c(OC)cccc1C(=O)NN(C(=O)c1cc(C)cc(C)c1)C(C)(C)C [RG-102240]      EC50        nM  660

// moving on: another record for EC50
Query :: Recall and state the measured EC50 for Cc1cc(C)cc(C(=O)N(NC(=O)c2cccc(C(C)C)c2C)C(C)(C)C)c1 [RG-102362] .
Result :: 820

---

biological target: CfEcR-DEF mutant V128F/A110P (Choristoneura fumiferana, UniProt O77255, A393P/V411F); assay: cell-based; conditions: mutant V128F/A110P; read-out: EC50
// EC50 lookup, one value per entry

compound	measuredTarget	EC50
CC(C)(O)CC[C@@H](O)[C@](C)(O)[C@H]1CC[C@@]2(O)C3=CC(=O)[C@@H]4C[C@@H](O)[C@@H](O)C[C@]4(C)[C@H]3CC[C@]12C [20E, 20-hydroxyecdysone]	CfEcR-DEF mutant V128F/A110P (Choristoneura fumiferana, UniProt O77255, A393P/V411F)	> 33 µM

Query :: Name the recorded EC50 of the item CC(C)CC[C@@H](O)[C@](C)(O)[C@H]1CC[C@@]2(O)C3=CC(=O)[C@@H]4C[C@@H](O)[C@@H](O)C[C@]4(C)[C@H]3CC[C@]12C [PonA, ponasterone A] in your answer.
Result :: > 33 µM

---

Measured EC50 of individual entries
target: CfEcR-DEF mutant Y120W (Choristoneura fumiferana, UniProt O77255, Y403W); experiment: cell-based; settings: mutant Y120W; read-out: EC50

compound	measuredTarget	val
CC(C)CC[C@@H](O)[C@](C)(O)[C@H]1CC[C@@]2(O)C3=CC(=O)[C@@H]4C[C@@H](O)[C@@H](O)C[C@]4(C)[C@H]3CC[C@]12C	CfEcR-DEF mutant Y120W (Choristoneura fumiferana, UniProt O77255, Y403W)	~10 µM

Query :: Retrieve EC50 measured for CC(C)(O)CC[C@@H](O)[C@](C)(O)[C@H]1CC[C@@]2(O)C3=CC(=O)[C@@H]4C[C@@H](O)[C@@H](O)C[C@]4(C)[C@H]3CC[C@]12C [20E, 20-hydroxyecdysone] and print it.
Result :: > 33 µM

---

Readings of EC50 for the listed compounds
target: CfEcR-DEF mutant V128F (Choristoneura fumiferana, UniProt O77255, V411F); test: cell-based; conditions: EC50, mutant V128F
Sequence (P28702 299-449): as above
Sequence (O77255 entry or part of it V411F): as the sequence (O77255 entry or part of it M408L) above, with L190M, V193F counted along it

> print(dat)
                                  structure      val
1  CCc1c(OC)cccc1C(=O)NN(C(=O)c1cc(C)cc(C)c1)C(C)(C)C  > 33 µM

Query :: Given the compound Cc1cc(C)cc(C(=O)N(NC(=O)c2cccc(C(C)C)c2C)C(C)(C)C)c1 , write its reported EC50.
Result :: > 33 µM

---

molecular target: CfEcR-DEF mutant F48K (Choristoneura fumiferana, UniProt O77255, F331K); assay: GAL4-driven luciferase reporter assay in NIH3T3 cells
Sequence (O77255 entry or part of it F331K): as the sequence (O77255 entry or part of it M408L) above, with F113K, L190M counted along it
Sequence (P28702 299-449, further chain): as the sequence (P28702 299-449) above
quantity: pEC50
# reply with the number alone; pEC50 is -log10 of concentration in mol/L

> print(dat)
                                   compound  quantity   val
1  CCc1c(OC)cccc1C(=O)NN(C(=O)c1cc(C)cc(C)c1)C(C)(C)C [RG-102240]     pEC50  4.96

Now for a further compound.
Query :: Report measured pEC50; entry is CCCCC(N(NC(=O)c1ccc(CC)cc1)C(=O)c1cc(C)cc(C)c1)C(C)(C)C (stereo not drawn) [RG-115840]
Result :: 5.42
